- TARGET_OF_ASSAY: GCase (GBA) in human fibroblast cell line GM10915 harboring the L444P GBA mutation (Homo sapiens, UniProt P04062, L483P)
- Construct: Human fibroblast cell line GM10915 harboring the L444P GBA mutation; host or cells: GM10915 human fibroblasts
- Sequence (P04062 40-536 L483P): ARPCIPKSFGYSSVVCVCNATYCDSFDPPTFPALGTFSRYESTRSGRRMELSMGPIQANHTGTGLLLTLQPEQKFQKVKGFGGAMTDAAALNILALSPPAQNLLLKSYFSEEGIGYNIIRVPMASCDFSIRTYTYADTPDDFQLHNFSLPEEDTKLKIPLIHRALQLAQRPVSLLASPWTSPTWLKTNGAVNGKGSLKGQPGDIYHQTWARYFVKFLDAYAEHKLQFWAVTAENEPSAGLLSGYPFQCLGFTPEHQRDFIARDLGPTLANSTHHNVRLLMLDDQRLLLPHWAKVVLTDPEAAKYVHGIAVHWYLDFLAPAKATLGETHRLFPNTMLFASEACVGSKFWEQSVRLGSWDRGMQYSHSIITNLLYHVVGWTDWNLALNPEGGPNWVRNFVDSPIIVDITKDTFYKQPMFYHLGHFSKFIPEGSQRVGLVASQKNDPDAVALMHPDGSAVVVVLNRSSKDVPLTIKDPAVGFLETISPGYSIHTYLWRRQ
- RUN_DESCRIPTION: GCase activity assay (4-MUG substrate, normalised to crystal violet staining) in L444P GBA fibroblasts
- Format: cell-based
- CONDITION_NOTES: maximum percent GCase activity relative to untreated cells in the dose range tested, 5 days exposure
MEASURED_ATTRIBUTE: Emax (%)
Note: unit % is implicit; provide only the numeric part.

CN1C(=O)CC(C2=NOCC(CN3CCCCC3)O2)c2ccccc21 (centres unmarked)    137
c1cnc(N2CCC(C3=NOCC(CN4CCCCC4)O3)CC2)nc1 (centres unmarked)    116
CC1(C2=NOCC(CN3CCCCC3)O2)CCCNC1 (racemic)    253
COC1CNC(C)(C2=NOCC(CN3CCCCC3)O2)C1 (racemic)    168

In the following, a different compound is considered.
[ask] Quick check: Emax of CNC1CNCC(C2=NOCC(CN3CCCCC3)O2)C1 (racemic) ?
[reply] 121

----------
- TARGET_OF_ASSAY: GCase (GBA) in human fibroblast cell line GM10915 harboring the L444P GBA mutation (Homo sapiens, UniProt P04062, L483P)
- Construct: Human fibroblast cell line GM10915 harboring the L444P GBA mutation; host or cells: GM10915 human fibroblasts
- RUN_DESCRIPTION: GCase activity assay (4-MUG substrate, normalised to crystal violet staining) in L444P GBA fibroblasts
- Format: cell-based
- CONDITION_NOTES: concentration giving 150% GCase activity (1.5-fold induction), 5 days exposure, 8-point dose range
MEASURED_ATTRIBUTE: GBA EC1.5 (µM)
Note: unit µM is implicit; provide only the numeric part.

Please review the following examples before continuing.
N[C@@H]1CN[C@H](C2=NOCC(CN3CCCCC3)O2)C1 (stereo partly drawn)    50
C1CCN(CC2CON=C(C34CCCNCC3C4)O2)CC1 (racemic)    40
c1cc(C2CCCNC2)ccc1C1=NOCC(CN2CCCCC2)O1 (stereo not drawn)    2
CN(C)CC1CON=C(C2CCNC2)O1 (stereo not drawn)    50
CC(C)C1ON=C(C2CCNCC2)OC1CN1CCCCC1 (racemic)    6

[ask] Quick check: GBA EC1.5 of C1CCN(CC2CON=C(CC3CCNCC3)O2)CC1 (racemic) ?
[reply] 35

[ask] Quick check: GBA EC1.5 of C1CCN(CC2CON=C([C@]34CCC[C@H]3NCC4)O2)CC1 (stereo partly drawn) ?
[reply] 4

[ask] Quick check: GBA EC1.5 of COC1CCN(C)CC1C1=NOCC(CN2CCCCC2)O1 (racemic) ?
[reply] 15

[ask] Quick check: GBA EC1.5 of O=C1CCC(C2=NOCC(CN3CCCCC3)O2)CN1 (stereo not drawn) ?
[reply] 50

[ask] Quick check: GBA EC1.5 of CN1C[C@@H](O)C[C@H](C2=NOCC(CN3CCCCC3)O2)C1 (relative stereo) ?
[reply] 16

[ask] Quick check: GBA EC1.5 of N[C@@H]1CN[C@@H](C2=NOCC(CN3CCCCC3)O2)C1 (stereo partly drawn) ?
[reply] 50

[ask] Quick check: GBA EC1.5 of COC1CNCCC1C1=NOCC(CN2CCCCC2)O1 (racemic) ?
[reply] 25

----------
- TARGET_OF_ASSAY: GCase (GBA) in human fibroblast cell line GM10915 harboring the L444P GBA mutation (Homo sapiens, UniProt P04062, L483P)
- Construct: Human fibroblast cell line GM10915 harboring the L444P GBA mutation; host or cells: GM10915 human fibroblasts
- RUN_DESCRIPTION: GCase activity assay (4-MUG substrate, normalised to crystal violet staining) in L444P GBA fibroblasts
- Type: cell-based
- CONDITION_NOTES: concentration giving 150% GCase activity (1.5-fold induction), 5 days exposure, 8-point dose range
Label TRUE when GBA EC1.5 is at or above 20 µM; anything below gets FALSE.

COCCC1(C2=NOCC(CN3CCCCC3)O2)CCN(C)C1 (racemic)    TRUE
CN1CC2CC[C@H](C1)N2CC1CON=C(C2(C)CCNCC2)O1 (some centres unmarked)    TRUE
Cc1cncc(CC2(C3=NOCC(CN4CCCCC4)O3)CCNCC2)c1 (centres unmarked)    FALSE
OC1(C2=NOCC(CN3CCCCC3)O2)CCNCC1 (centres unmarked)    TRUE

[ask] Assess whether reported GBA EC1.5 for c1nc(C2CCCNC2)sc1C1=NOCC(CN2CCCCC2)O1 (centres unmarked) sits at 20 µM or higher.
[reply] FALSE

[ask] Assess whether reported GBA EC1.5 for CN(C)C(=O)N1CCC(C2=NOCC(CN3CCCCC3)O2)CC1 (centres unmarked) sits at 20 µM or higher.
[reply] TRUE

[ask] Assess whether reported GBA EC1.5 for CN1CCCC(C2=NOCC(CN3CCCCC3)O2)C1 (racemic) sits at 20 µM or higher.
[reply] FALSE

----------
Reported Emax values are given for each entry in this list.
- TARGET_OF_ASSAY: GCase (GBA) in human fibroblast cell line GM10915 harboring the L444P GBA mutation (Homo sapiens, UniProt P04062, L483P)
- Construct: Human fibroblast cell line GM10915 harboring the L444P GBA mutation; host or cells: GM10915 human fibroblasts
- RUN_DESCRIPTION: GCase activity assay (4-MUG substrate, normalised to crystal violet staining) in L444P GBA fibroblasts
- Assay type: cell-based
- CONDITION_NOTES: maximum percent GCase activity relative to untreated cells in the dose range tested, 5 days exposure
Note: unit % is implicit; provide only the numeric part.

Please review the following examples before continuing.
C1CCN(CCC2=NOC[C@@H](CN3CCCCC3)O2)CC1    168
NCC(=O)N1CCC(C2=NOCC(CN3CCCCC3)O2)CC1 (racemic)    193

In the following, a different compound is considered.
[ask] Quick check: Emax of CC1(C2=NOCC(CN3CCCCC3)O2)CNC1 (racemic) ?
[reply] 232

----------
- TARGET_OF_ASSAY: GCase (GBA) in human fibroblast cell line GM10915 harboring the L444P GBA mutation (Homo sapiens, UniProt P04062, L483P)
- Construct: Human fibroblast cell line GM10915 harboring the L444P GBA mutation; host or cells: GM10915 human fibroblasts
- RUN_DESCRIPTION: GCase activity assay (4-MUG substrate, normalised to crystal violet staining) in L444P GBA fibroblasts
- Format: cell-based
- CONDITION_NOTES: maximum percent GCase activity relative to untreated cells in the dose range tested, 5 days exposure
Decide using Emax alone. Strictly below 200%: 1.0. Equal to or above 200%: 0.0.

Previously resolved entries follow.
OC1(C2=NOCC(CN3CCCCC3)O2)CCNCC1 (stereo not shown) [compound 650]    1.0
c1cncc(CC2(C3=NOCC(CN4CCCCC4)O3)CCNCC2)c1 (racemic) [compound 550]    1.0
C1CCN(CC2CON=C(CC3CCCNC3)O2)CC1 (racemic) [compound 554]    0.0

[ask] Answer whether the molecule C[C@@H]1CNC[C@H]1C1=NOCC(CN2CCCCC2)O1 (relative stereo) [compound 551] has Emax strictly less than 200%
[reply] 1.0

[ask] Answer whether the molecule COCC1(C2=NOCC(CN3CCCCC3)O2)CCNC1 (racemic) [compound 594] has Emax strictly less than 200%
[reply] 1.0

[ask] Answer whether the molecule CN1C[C@@H]2CN(CC3CON=C(C4(C)CCNCC4)O3)C[C@@H]2C1 (stereo partly shown) [compound 592] has Emax strictly less than 200%
[reply] 1.0

[ask] Answer whether the molecule Fc1cncc(CC2(C3=NOCC(CN4CCCCC4)O3)CCNCC2)c1 (racemic) [compound 528] has Emax strictly less than 200%
[reply] 1.0

[ask] Answer whether the molecule C1CCN(CC2CON=C(C34CCN(CC3)CC4)O2)CC1 (racemic) [compound 642] has Emax strictly less than 200%
[reply] 0.0
